# Test system: DLD-1 colon
# run description: NCI tumour cell line growth inhibition, 48 h
readout kind: TGI

structure as smiles	result
CCOC(=O)C1=C(Nc2ccc(Br)cc2)OC/C1=N\NC(=O)c1ccccc1O	97.3 µM
O=C(CNc1ccc2c(=S)c3ccccc3[nH]c2c1)Nc1ccccc1-c1ccccc1NC(=O)CNc1ccc2c(=S)c3ccccc3[nH]c2c1	23.9 µM
Cn1c(=O)c(C(=O)NC(=O)NCCCCCOC(=O)CCCCCCCCCCC(=O)OCCCCCNC(=O)NC(=O)c2cn(Cc3ccccc3)c(=O)n(C)c2=O)cn(Cc2ccccc2)c1=O	> 100 µM

Field: next compound
Req: Recorded TGI of CCN(CC)c1ccc(N=C2C=C(Cl)C(=O)c3ncccc32)c(C)c1 , please.
Resp: 17 µM
